# Assay system: human IDO1 protein (Homo sapiens, UniProt P14902)
# Sequence (P14902 whole entry): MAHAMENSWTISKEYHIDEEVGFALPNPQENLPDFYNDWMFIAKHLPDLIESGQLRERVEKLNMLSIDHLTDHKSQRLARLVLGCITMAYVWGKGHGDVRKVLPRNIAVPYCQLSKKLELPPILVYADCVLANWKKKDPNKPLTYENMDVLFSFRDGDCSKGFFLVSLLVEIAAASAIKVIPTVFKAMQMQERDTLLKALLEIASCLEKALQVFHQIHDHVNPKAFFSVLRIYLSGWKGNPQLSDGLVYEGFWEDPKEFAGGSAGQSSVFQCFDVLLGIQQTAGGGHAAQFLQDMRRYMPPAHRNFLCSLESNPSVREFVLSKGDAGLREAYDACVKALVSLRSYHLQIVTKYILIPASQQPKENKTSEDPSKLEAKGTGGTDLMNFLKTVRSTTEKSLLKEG
Value kind: IC50
Could you kindly put the unit after your number?

Check out these entries, answers already filled in.
compound="Clc1ccc(N2COc3ccc4ccccc4c3C2)cc1 [DC-I028]" value_kind=IC50 result="21.6 µM"
compound="O=C(NC(=S)Nc1c(O)ccc2ccccc12)c1ccccc1I [DC-I02807]" value_kind=IC50 result="25 µM"
compound="O=C(NC(=S)Nc1c(O)ccc2ccccc12)c1ccccc1Br [DC-I02808]" value_kind=IC50 result="17.9 µM"

Now, please, on to the next compound.
Endpoint output: IC50 of CCOc1cc(C(=O)NC(=S)Nc2c(O)ccc3ccccc23)cc(OCC)c1OCC [DC-I02806] . Value?
18.7 µM

Taken from paper PMC5884943.
